- system-tested: UniProtKB O75116
- Sequence (O75116 whole entry): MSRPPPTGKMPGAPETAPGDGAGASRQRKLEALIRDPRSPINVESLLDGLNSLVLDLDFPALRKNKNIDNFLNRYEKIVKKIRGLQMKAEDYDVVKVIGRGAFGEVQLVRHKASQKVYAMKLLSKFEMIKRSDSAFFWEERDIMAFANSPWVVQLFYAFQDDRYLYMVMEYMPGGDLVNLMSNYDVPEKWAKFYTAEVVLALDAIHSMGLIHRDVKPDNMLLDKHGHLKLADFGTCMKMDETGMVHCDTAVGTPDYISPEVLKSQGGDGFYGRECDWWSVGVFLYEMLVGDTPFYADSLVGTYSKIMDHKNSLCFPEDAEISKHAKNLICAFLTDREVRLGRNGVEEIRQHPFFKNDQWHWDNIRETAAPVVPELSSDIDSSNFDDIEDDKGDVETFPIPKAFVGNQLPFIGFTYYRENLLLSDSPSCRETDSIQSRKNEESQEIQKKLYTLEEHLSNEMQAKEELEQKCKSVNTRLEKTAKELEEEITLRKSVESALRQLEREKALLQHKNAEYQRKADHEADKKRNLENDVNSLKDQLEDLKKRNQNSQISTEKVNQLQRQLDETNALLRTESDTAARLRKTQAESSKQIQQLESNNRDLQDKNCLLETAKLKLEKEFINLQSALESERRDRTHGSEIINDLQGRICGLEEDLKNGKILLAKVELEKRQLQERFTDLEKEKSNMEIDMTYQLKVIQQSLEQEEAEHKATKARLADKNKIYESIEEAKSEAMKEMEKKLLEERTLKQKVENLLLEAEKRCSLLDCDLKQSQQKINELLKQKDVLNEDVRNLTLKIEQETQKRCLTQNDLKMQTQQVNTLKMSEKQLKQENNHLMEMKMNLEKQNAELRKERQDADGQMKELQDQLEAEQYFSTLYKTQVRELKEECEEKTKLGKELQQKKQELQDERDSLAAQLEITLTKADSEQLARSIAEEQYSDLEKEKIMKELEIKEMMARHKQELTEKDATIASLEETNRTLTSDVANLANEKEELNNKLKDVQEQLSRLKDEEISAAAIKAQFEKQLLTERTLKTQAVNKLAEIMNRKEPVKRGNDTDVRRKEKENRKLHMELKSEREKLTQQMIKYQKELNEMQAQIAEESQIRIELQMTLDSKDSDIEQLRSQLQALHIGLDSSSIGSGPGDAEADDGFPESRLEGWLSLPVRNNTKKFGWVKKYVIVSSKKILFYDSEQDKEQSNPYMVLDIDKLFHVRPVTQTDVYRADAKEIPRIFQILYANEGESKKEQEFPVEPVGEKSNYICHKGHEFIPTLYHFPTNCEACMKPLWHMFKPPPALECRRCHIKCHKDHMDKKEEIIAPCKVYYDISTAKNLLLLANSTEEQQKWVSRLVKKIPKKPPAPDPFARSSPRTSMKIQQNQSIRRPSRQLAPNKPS
recorded-metric: IC50

Query: Short answer please: IC50, UniProtKB O75116, entry CC(Sc1nc2c(cnn2-c2cccc(Cl)c2)c(=O)[nH]1)C(N)=O (stereo unspecified)
Response: > 200 µM

###

- system-tested: Serine/threonine-protein kinase pim-1 (Homo sapiens)
- Sequence (P11309 whole entry): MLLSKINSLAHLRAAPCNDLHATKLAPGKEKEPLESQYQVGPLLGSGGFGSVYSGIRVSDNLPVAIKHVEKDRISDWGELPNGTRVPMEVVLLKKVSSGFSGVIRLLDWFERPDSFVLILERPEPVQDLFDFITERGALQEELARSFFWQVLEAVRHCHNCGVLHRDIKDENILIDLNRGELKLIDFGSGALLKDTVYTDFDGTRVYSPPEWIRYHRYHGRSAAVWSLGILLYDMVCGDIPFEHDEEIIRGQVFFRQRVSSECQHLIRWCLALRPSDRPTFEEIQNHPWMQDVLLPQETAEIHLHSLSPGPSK
recorded-metric: Kd
Give the number first and the unit second.

Query: What value of measured Kd is listed for CC(Sc1nc2c(cnn2-c2cccc(Cl)c2)c(=O)[nH]1)C(N)=O (stereo unspecified) [HS38] ?
Response: 1.8 µM

###

- system-tested: Serine/threonine-protein kinase pim-3 (Homo sapiens)
recorded-metric: pKd
The read-out pKd is expressed as -log10 of concentration in moles per litre.

Query: What value of measured pKd is listed for O=c1[nH]c(SCCO)nc2c1cnn2-c1cccc(Cl)c1 [HS43] ?
Response: 5.80

The values you see were collected from BindingDB's records for doi:10.1021/cb400407c.
